Reported IC50 values for the following compounds.
System: HT-29
Assay: cells
Conditions: Homo sapiens, HT-29, 72 h
measured_parameter: IC50

1. CCCNC(=O)c1cc(Oc2ccc(NC(=O)c3cc4cccnc4n(-c4ccc(F)cc4)c3=O)cc2)ccn1 :: 84 nM
2. CCCNC(=O)c1cc(Oc2ccc(NC(=O)c3cc4cccnc4n(-c4ccccc4F)c3=O)cc2)ccn1 :: 200 nM
3. CNC(=O)c1cc(Oc2ccc(NC(=O)c3cc4cccnc4n(-c4ccc(Br)cc4F)c3=O)cc2)ccn1 :: 1950 nM
4. CCNC(=O)c1cc(Oc2ccc(NC(=O)c3cc4cccnc4n(-c4ccc(OC)cc4)c3=O)cc2)ccn1 :: 3350 nM
5. CCCNC(=O)c1cc(Oc2ccc(NC(=O)c3cc4cccnc4n(-c4ccc(OC)cc4)c3=O)cc2)ccn1 :: 1560 nM
6. CCNC(=O)c1cc(Oc2ccc(NC(=O)c3cc4cccnc4n(-c4ccc(Br)cc4F)c3=O)cc2)ccn1 :: 2070 nM
7. CCNC(=O)c1cc(Oc2ccc(NC(=O)c3cc4cccnc4n(-c4ccc(F)cc4)c3=O)cc2)ccn1 :: 190 nM
8. CNC(=O)c1cc(Oc2ccc(NC(=O)c3cc4cccnc4n(-c4ccc(Cl)cc4)c3=O)cc2)ccn1 :: 390 nM
9. CCCNC(=O)c1cc(Oc2ccc(NC(=O)c3cc4cccnc4n(-c4ccc(Cl)cc4)c3=O)cc2)ccn1 :: 390 nM
10. CNC(=O)c1cc(Oc2ccc(NC(=O)c3cc4cccnc4n(-c4ccccc4)c3=O)cc2)ccn1 :: 250 nM
11. CNC(=O)c1cc(Oc2ccc(NC(=O)c3cc4cccnc4n(-c4ccc(C(F)(F)F)cc4Cl)c3=O)cc2)ccn1 :: 3190 nM
12. CNC(=O)c1cc(Oc2ccc(NC(=O)c3cc4cccnc4n(-c4ccc(OC)cc4)c3=O)cc2)ccn1 :: 920 nM
13. CCCNC(=O)c1cc(Oc2ccc(NC(=O)c3cc4cccnc4n(-c4ccc(Br)cc4F)c3=O)cc2)ccn1 :: 2160 nM
14. CNC(=O)c1cc(Oc2ccc(NC(=O)c3cc4cccnc4n(-c4ccc(Br)cc4)c3=O)cc2)ccn1 :: 1180 nM
15. CCNC(=O)c1cc(Oc2ccc(NC(=O)c3cc4cccnc4n(-c4ccc(Cl)cc4)c3=O)cc2)ccn1 :: 330 nM
16. CCNC(=O)c1cc(Oc2ccc(NC(=O)c3cc4cccnc4n(-c4ccccc4)c3=O)cc2)ccn1 :: 220 nM
17. CNC(=O)c1cc(Oc2ccc(NC(=O)c3cc4cccnc4n(-c4ccccc4F)c3=O)cc2)ccn1 :: 260 nM
18. CNC(=O)c1cc(Oc2ccc(NC(=O)c3cc4cccnc4n(-c4ccc(F)cc4)c3=O)cc2)ccn1 :: 160 nM
19. CCNC(=O)c1cc(Oc2ccc(NC(=O)c3cc4cccnc4n(-c4ccc(F)c(Cl)c4)c3=O)cc2)ccn1 :: 2600 nM
20. CCCNC(=O)c1cc(Oc2ccc(NC(=O)c3cc4cccnc4n(-c4ccc(C(F)(F)F)cc4Cl)c3=O)cc2)ccn1 :: 1960 nM
21. CCNC(=O)c1cc(Oc2ccc(NC(=O)c3cc4cccnc4n(-c4ccc(Br)cc4)c3=O)cc2)ccn1 :: 1160 nM
22. CCNC(=O)c1cc(Oc2ccc(NC(=O)c3cc4cccnc4n(-c4ccccc4F)c3=O)cc2)ccn1 :: 260 nM
23. CNC(=O)c1cc(Oc2ccc(NC(=O)c3cc4cccnc4n(-c4ccc(F)c(Cl)c4)c3=O)cc2)ccn1 :: 1810 nM
